- Tested on: Mus musculus
- assay info: Antialzheimer activity in APP51/16 transgenic mouse expressing human APP51/16Npa and mouse Thy1 assessed as reduction in brain C99 level reduction at 180 umol/kg, po measured 4 hrs post dosing
- Type: functional
- Design: scale not given: the % may be the effect or the level left
# if value of Activity reaches 50%, tag 1; if it stays below, tag -1

Take a look at these entries with their results.
compound structure string | measured target | label value
COC[C@@H](Oc1cc(C[C@@H]2CS(=O)(=O)C[C@H](NCc3cccc(C(C)(C)C)c3)[C@H]2O)cc(F)c1N)C(F)(F)F | Mus musculus | -1
CCOc1cc(C[C@@H]2CS(=O)(=O)C[C@H](NCc3cccc(C(C)(C)C)c3)[C@H]2O)cc(F)c1N | Mus musculus | 1
CC(C)(C)c1cccc(CN[C@H]2CS(=O)(=O)C[C@@H](Cc3cc(F)c(N)c(OC(C(F)(F)F)C(F)(F)F)c3)[C@@H]2O)c1 | Mus musculus | -1

Form field: Activity at least 50%? Entry: CC(C)(C)c1cccc(CN[C@H]2CS(=O)(=O)C[C@@H](Cc3cc(F)c(N)c(OCC(F)F)c3)[C@@H]2O)c1
-1

Form field: Activity at least 50%? Entry: CC(C)(C)c1cccc(CN[C@H]2CS(=O)(=O)C[C@@H](Cc3cc(F)c(N)c(OCC(F)(F)F)c3)[C@@H]2O)c1
-1

###

- assay info: AUC (0 to infinity) in C57BL/6 mouse at 60 umol/kg, po dosed in HS15/propylenglycol/citrate buffer, pH 4.75, 50 mM (10/5/85, v/v/v) by LC/MS/MS analysis
- Assay type: ADME, organism-based
- Set-up: dose 60 umol/kg, route oral, time infinity
- condition description: plasma
property label: AUC(0-inf) (µM·h)
Report the figure in µM·h without appending any unit label.

The reported value for CC(C)(C)c1cccc(CN[C@H]2CS(=O)(=O)C[C@@H](Cc3cc(F)c(N)c(OC(C(F)(F)F)C(F)(F)F)c3)[C@@H]2O)c1 in terms of AUC(0-inf) is 4.07

###

- assay info: Ratio of drug uptake in brain to blood in C57BL/6 mouse at 60 umol/kg, po dosed in carboxymethyl cellulose 0.5% w/v in water/Tween 80 (99.5/0.5, v/v) measured 4 hrs post dosing by LC/MS/MS analysis
- Format: ADME, organism-based
property label: Kp at 4 h
Just the number, please, no unit after it.

compound structure string | Kp at 4 h
CC(C)(C)c1cccc(CN[C@H]2CS(=O)(=O)C[C@@H](Cc3ccc(N)c(Br)c3)[C@@H]2O)c1 | 0.6

For the next question, use this molecule.
The reported value for CC(C)(C)c1cccc(CN[C@H]2CS(=O)(=O)C[C@@H](Cc3cc(F)c(N)c(OCC(F)(F)F)c3)[C@@H]2O)c1 in terms of Kp at 4 h is 0.3

###

- Test system: MDR1 (human)
- assay info: Apparent permeability across MDCK cells expressing human MDR1 at 5 uM after 2 hrs by LC-MS analysis
- Type: ADME, cell-based, Canis lupus familiaris
- condition description: dog
# if value of Papp at 2 h, 5 µM reaches 10 ×10⁻⁶ cm/s, tag 1; if it stays below, tag -1

compound | label value
CCOC[C@H](Oc1cc(C[C@@H]2CS(=O)(=O)C[C@H](NCc3cccc(C(C)(C)C)c3)[C@H]2O)cc(F)c1N)C(F)(F)F | -1
CC(C)(C)c1cccc(CN[C@H]2CS(=O)(=O)C[C@@H](Cc3cc(F)c(N)c(CCC(F)(F)F)c3)[C@@H]2O)c1 | 1
CCOc1cc(C[C@@H]2CS(=O)(=O)C[C@H](NCc3cccc(C(C)(C)C)c3)[C@H]2O)cc(F)c1N | 1
CC(C)(O)c1cccc(CN[C@H]2CS(=O)(=O)C[C@@H](Cc3cc(F)c(N)c(OC(C(F)(F)F)C(F)(F)F)c3)[C@@H]2O)c1 | 1
CC(C)(C)c1ccnc(CN[C@H]2CS(=O)(=O)C[C@@H](Cc3cc(F)c(N)c(OC(C(F)(F)F)C(F)(F)F)c3)[C@@H]2O)c1 | 1

Form field: Papp at 2 h, 5 µM at least 10 ×10⁻⁶ cm/s? Entry: CC(C)(CO)c1cccc(CN[C@H]2CS(=O)(=O)C[C@@H](Cc3cc(F)c(N)c(OC(C(F)(F)F)C(F)(F)F)c3)[C@@H]2O)c1
1

Form field: Papp at 2 h, 5 µM at least 10 ×10⁻⁶ cm/s? Entry: CCCOc1cc(CC2CS(=O)(=O)CC(NCc3cccc(C(C)(C)C)c3)[C@H]2O)cc(F)c1N (single isomer, unassigned)
-1

###

# Lookup of reported IC50 keyed by entry
- measured target: Cathepsin D (Homo sapiens, UniProt P07339)
- Sequence (P07339 65-162 limits assumed): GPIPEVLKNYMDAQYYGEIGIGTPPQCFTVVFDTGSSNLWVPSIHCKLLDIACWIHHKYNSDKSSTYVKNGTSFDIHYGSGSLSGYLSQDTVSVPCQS
- Sequence (P07339 169-412 limits assumed): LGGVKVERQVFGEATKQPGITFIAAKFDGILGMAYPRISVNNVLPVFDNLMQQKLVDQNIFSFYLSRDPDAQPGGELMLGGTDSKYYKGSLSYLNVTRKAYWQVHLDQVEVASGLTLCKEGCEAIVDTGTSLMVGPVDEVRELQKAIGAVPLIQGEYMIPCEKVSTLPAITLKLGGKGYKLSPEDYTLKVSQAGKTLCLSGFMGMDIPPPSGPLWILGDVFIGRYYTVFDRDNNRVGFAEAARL
- assay info: Inhibition of human recombinant CatD using Mca-GKPILFFRLK(DNP)-dR-NH2 as substrate after 1 hr by fluorescence analysis
Report the figure in µM without appending any unit label.

Would you please look over these solved cases?
molecule | reading unit | IC50
CC(C)(C)c1cccc(CN[C@H]2CS(=O)(=O)C[C@@H](Cc3cc(F)c4c(c3)C3(CCC3)CN4)[C@@H]2O)c1 (racemic) | µM | 0.08
CC(C)(C)c1ccnc(CN[C@H]2CS(=O)(=O)C[C@@H](Cc3cc(F)c(N)c(OC(C(F)(F)F)C(F)(F)F)c3)[C@@H]2O)c1 | µM | 3.07
CC(C)(C)c1cccc(CN[C@H]2CS(=O)(=O)C[C@@H](Cc3cc(F)c(N)c(OCC(F)F)c3)[C@@H]2O)c1 | µM | 0.68
CC(C)(C)c1cccc(CN[C@H]2CS(=O)(=O)C[C@@H](Cc3cc(F)c(N)c(Br)c3)[C@@H]2O)c1 | µM | 0.34
CC(C)(C)c1cccc(CN[C@H]2CS(=O)(=O)C[C@@H](Cc3cc(F)c(N)c(-c4cc[nH]n4)c3)[C@@H]2O)c1 (racemic) | µM | 0.6

The reported value for CC(C)(C)Cc1cc(CN[C@H]2CS(=O)(=O)C[C@@H](Cc3cc(F)c(N)c(OC(C(F)(F)F)C(F)(F)F)c3)[C@@H]2O)no1 in terms of IC50 is 0.51

The reported value for COCCOC[C@@H](Oc1cc(C[C@@H]2CS(=O)(=O)C[C@H](NCc3cccc(C(C)(C)C)c3)[C@H]2O)cc(F)c1N)C(F)(F)F in terms of IC50 is 0.25

###

- assay info: AUC (0 to infinity) in C57BL/6 mouse at 2 umol/kg, iv dosed in N-methyl pyrrolidone/blank plasma (10:90 v/v) by LC/MS/MS analysis
- Assay type: ADME, organism-based
- Design: dose 2 umol/kg, time infinity, route intravenous
# Lookup of reported AUC(0-inf) keyed by entry
Report the figure in µM·h without appending any unit label.

compound structure string | observed measurement
CC(C)(C)c1cccc(CN[C@H]2CS(=O)(=O)C[C@@H](Cc3cc(F)c(N)c(OC(C(F)(F)F)C(F)(F)F)c3)[C@@H]2O)c1 | 0.407
CC(C)(C)c1cccc(CN[C@H]2CS(=O)(=O)C[C@@H](Cc3ccc(N)c(Br)c3)[C@@H]2O)c1 | 4.09

For the next question, use this compound.
The reported value for CC(C)(C)c1cccc(CN[C@H]2CS(=O)(=O)C[C@@H](Cc3cc(F)c(N)c(OCC(F)(F)F)c3)[C@@H]2O)c1 in terms of AUC(0-inf) is 0.3

###

- assay info: Oral bioavailability in C57BL/6 mouse at 6 umol/kg dosed in carboxymethyl cellulose 0.5% w/v in water/Tween 80 (99.5/0.5, v/v) by LC/MS/MS analysis
- Format: ADME, organism-based
- condition description: in vivo
property label: bioavailability (%)
Report the figure in % without appending any unit label.

The reported value for CC(C)(C)c1cccc(CN[C@H]2CS(=O)(=O)C[C@@H](Cc3cc(F)c(N)c(OCC(F)(F)F)c3)[C@@H]2O)c1 in terms of bioavailability is 52

###

- assay info: Drug uptake in C57BL/6 mouse blood at 2 umol/kg, iv dosed in N-methyl pyrrolidone/blank plasma (10:90 v/v) measured 4 hrs post dosing by LC/MS/MS analysis
- Type: ADME, organism-based
- condition description: read-out: Drug uptake
property label: concentration at 4 h (nM)
Report the figure in nM without appending any unit label.

The reported value for CC(C)(C)c1cccc(CN[C@H]2CS(=O)(=O)C[C@@H](Cc3cc(F)c(N)c(OCC(F)(F)F)c3)[C@@H]2O)c1 in terms of concentration at 4 h is 10

###

Reported values: IC50 for Beta-secretase 1 (Homo sapiens), one per item.
The reply should consist of the numeric value with the unit placed after it.

Would you please look over these solved cases?
molecule | measured target | observed measurement
CC(C)(C)c1cccc(CN[C@H]2CS(=O)(=O)C[C@@H](Cc3ccc4[nH]ncc4c3)[C@@H]2O)c1 (racemic) | Beta-secretase 1 (Homo sapiens) | 1450 nM
CC(C)(C)c1cccc(CN[C@H]2CS(=O)(=O)C[C@@H](Cc3ccc(N)c(OCC(F)(F)F)c3)[C@@H]2O)c1 | Beta-secretase 1 (Homo sapiens) | 36 nM
CC(C)(C)c1cccc(CN[C@H]2CS(=O)(=O)C[C@@H](Cc3cc(F)c(N)c(OC4CCC4)c3)[C@@H]2O)c1 | Beta-secretase 1 (Homo sapiens) | 11 nM

For the next question, use this molecule.
The reported value for CC(C)(CO)c1cccc(CN[C@H]2CS(=O)(=O)C[C@@H](Cc3cc(F)c(N)c(OC(C(F)(F)F)C(F)(F)F)c3)[C@@H]2O)c1 in terms of IC50 is 2 nM

Source listed as ChEMBL document CHEMBL2046351.
